- study system: human MSR1 extracellular domain expressed with a N-terminal nonahistidine tag (His9-hMSR1; R&D Systems, Cat #2708-MS) (human) (UniProt P21757)
- Sequence (P21757 other isoform, or with tags, fused parts or gaps): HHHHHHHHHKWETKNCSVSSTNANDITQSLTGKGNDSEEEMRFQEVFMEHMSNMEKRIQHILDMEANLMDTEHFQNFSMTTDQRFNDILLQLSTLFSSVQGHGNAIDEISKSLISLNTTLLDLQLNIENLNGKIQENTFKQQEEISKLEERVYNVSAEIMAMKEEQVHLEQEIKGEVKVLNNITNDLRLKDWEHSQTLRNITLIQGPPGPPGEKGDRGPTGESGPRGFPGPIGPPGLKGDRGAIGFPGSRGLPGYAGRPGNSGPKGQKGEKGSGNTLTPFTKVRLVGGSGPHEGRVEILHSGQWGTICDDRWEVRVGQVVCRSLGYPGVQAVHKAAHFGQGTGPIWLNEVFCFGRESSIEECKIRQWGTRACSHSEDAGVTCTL
- run description: competition ELISA; 100 nM antibody, competitor Ac-LDL, plate-coated His9-hMSR1
assay endpoint: % Blocking (%)

• H1H21227N (antibody, human IgG1, V domains shown) VH: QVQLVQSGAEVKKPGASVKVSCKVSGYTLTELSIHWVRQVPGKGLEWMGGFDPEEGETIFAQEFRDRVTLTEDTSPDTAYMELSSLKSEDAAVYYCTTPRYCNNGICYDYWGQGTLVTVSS VL: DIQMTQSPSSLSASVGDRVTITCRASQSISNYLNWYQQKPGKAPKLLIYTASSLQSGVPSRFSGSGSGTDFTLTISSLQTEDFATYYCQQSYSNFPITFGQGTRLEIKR = 105
• H1H21227N-N297D (antibody, human IgG1, V domains shown) VH: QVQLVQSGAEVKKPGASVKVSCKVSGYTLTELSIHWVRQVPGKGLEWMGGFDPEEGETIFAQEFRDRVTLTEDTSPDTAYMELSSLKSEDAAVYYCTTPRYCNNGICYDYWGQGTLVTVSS VL: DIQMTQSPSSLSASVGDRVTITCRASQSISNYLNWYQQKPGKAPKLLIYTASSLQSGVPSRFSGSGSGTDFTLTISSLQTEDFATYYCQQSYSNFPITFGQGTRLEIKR = 101
• H1H27747P-N297Q (antibody, human IgG1, V domains shown) VH: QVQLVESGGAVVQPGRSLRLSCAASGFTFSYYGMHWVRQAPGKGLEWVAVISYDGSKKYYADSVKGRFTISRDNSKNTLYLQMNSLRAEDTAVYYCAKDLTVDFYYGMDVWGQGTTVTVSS VL: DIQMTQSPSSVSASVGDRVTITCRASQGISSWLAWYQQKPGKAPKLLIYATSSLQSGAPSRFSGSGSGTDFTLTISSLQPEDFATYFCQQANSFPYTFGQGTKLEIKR = -44
